- target-of-assay: UniProtKB P32245
- experiment-description: High and low density hMC4-R functional assay (cAMP, HEK293-T-REx-MC4-R cells)
- Assay type: cell-based
- protocol-conditions: 10 ng/mL Doxycycline (high density hMC4-R system); NDP-α-MSH = 100%; read-out: Intrinsic Activity (%)
Positions of bridges follow the written chain, without caps; N, C: chain ends. Non-standard residues stand in square brackets, D forms with d. Residues, ends and D or L forms follow the SMILES beside them. dPhe(4-CN) = N#Cc1ccc(C[C@@H](N)C(=O)O)cc1; Orn = NCCC[C@H](N)C(=O)O
observable: Emax (%)
Could you give me the number in %? Just the number is fine.

(Q) Would you mind telling me what Emax value was observed for CC(=O)N[C@@H](CCCNC(=N)N)C(=O)N[C@H]1CCC(=O)NCCC[C@@H](C(N)=O)NC(=O)[C@H](Cc2c[nH]c3ccccc23)NC(=O)[C@H](CCCNC(=N)N)NC(=O)[C@@H](Cc2ccc([N+](=O)[O-])cc2)NC(=O)[C@H](CCN)NC1=O ?
(A) 99

(Q) Would you kindly repeat that for CC(=O)N[C@@H](CCCNC(=N)N)C(=O)N[C@H]1CCCNC(=O)CC[C@@H](C(N)=O)NC(=O)[C@H](Cc2c[nH]c3ccccc23)NC(=O)[C@H](CCCNC(=N)N)NC(=O)[C@@H](Cc2ccccc2C)NC(=O)[C@H](CCC(N)=O)NC1=O ?
(A) 104

(Q) Would you kindly repeat that for CC(=O)N[C@@H](CCCNC(=N)N)C(=O)N[C@H]1CCC(=O)NCCC[C@@H](C(=O)O)NC(=O)[C@H](Cc2c[nH]c3ccccc23)NC(=O)[C@H](CCCNC(=N)N)NC(=O)[C@@H](Cc2ccc(C#N)cc2)NC(=O)[C@H](CC(=O)O)NC1=O [Example 107] (Ac-RED[dPhe(4-CN)]RW[Orn]-OH; lactam 2-7) ?
(A) 64

(Q) Would you kindly repeat that for CC(=O)N[C@@H](CCCNC(=N)N)C(=O)N[C@H]1CCC(=O)NCCC[C@@H](C(N)=O)NC(=O)[C@H](Cc2c[nH]c3ccccc23)NC(=O)[C@H](CCCNC(=N)N)NC(=O)[C@@H](Cc2ccccc2Cl)NC(=O)[C@H]([C@@H](C)OCc2ccccc2)NC1=O ?
(A) 93

----------
- target-of-assay: MC1-R
- experiment-description: Competitive inhibition binding assay using [I125]-NDP-α-MSH, MC1-R
- protocol-conditions: membranes of B-16 mouse melanoma cells (endogenous MC1-R), in some instances HEK-293 hMC1-R
observable: log10 Ki (log10 of the value in nM)
Note the log scale: values are log10 of Ki expressed in nM.

CC(=O)N[C@@H](CCCNC(=N)N)C(=O)N[C@H]1CCC(=O)NCCC[C@@H](C(N)=O)NC(=O)[C@H](Cc2c[nH]c3ccccc23)NC(=O)[C@H](CCCNC(=N)N)NC(=O)[C@@H](Cc2ccc(Cl)cc2Cl)NC(=O)[C@H](CCN)NC1=O: -0.30
CC(=O)N[C@@H](CCCNC(=N)N)C(=O)N[C@H]1CCC(=O)NCCC[C@@H](C(N)=O)NC(=O)[C@H](Cc2c[nH]c3ccccc23)NC(=O)[C@H](CCCNC(=N)N)NC(=O)[C@@H](Cc2ccccc2F)NC(=O)[C@@H]2CCCN2C1=O: 1.98
CC(=O)N[C@@H](CCCNC(=N)N)C(=O)N[C@H]1CCC(=O)NCCC[C@@H](C(N)=O)NC(=O)[C@H](Cc2c[nH]c3ccccc23)NC(=O)[C@H](CCCNC(=N)N)NC(=O)[C@@H](Cc2ccccc2Cl)NC(=O)[C@H](CCN)NC1=O: 0.00

(Q) For the record CC(=O)N[C@@H](CCCNC(=N)N)C(=O)N[C@H]1CCC(=O)NCCC[C@@H](C(N)=O)NC(=O)[C@H](Cc2c[nH]c3ccccc23)NC(=O)[C@H](CCCNC(=N)N)NC(=O)[C@@H](Cc2ccccc2C(F)(F)F)NC(=O)[C@H](CCN)NC1=O , what value of log10 Ki is listed for MC1-R?
(A) 0.48

(Q) Would you kindly repeat that for CC(=O)N[C@@H](CCCNC(=N)N)C(=O)N[C@H]1CCC(=O)NCCC[C@@H](C(N)=O)NC(=O)[C@H](Cc2c[nH]c3ccccc23)NC(=O)[C@H](CCCNC(=N)N)NC(=O)[C@@H](Cc2ccccc2Cl)NC(=O)[C@H](CO)NC1=O ?
(A) 2.48

(Q) Would you kindly repeat that for CC(=O)N[C@@H](CCCNC(=N)N)C(=O)N[C@H]1CCCNC(=O)CC[C@@H](C(N)=O)NC(=O)[C@H](Cc2c[nH]c3ccccc23)NC(=O)[C@H](CCCNC(=N)N)NC(=O)[C@@H](Cc2ccccc2C(F)(F)F)NC(=O)[C@H](CCC(N)=O)NC1=O ?
(A) 2.37

(Q) Would you kindly repeat that for CC(=O)N[C@@H](CCCNC(=N)N)C(=O)N[C@H]1CCC(=O)NCCC[C@@H](C(N)=O)NC(=O)[C@H](Cc2c[nH]c3ccccc23)NC(=O)[C@H](CCCNC(=N)N)NC(=O)[C@@H](Cc2ccc(Cl)cc2)NC(=O)[C@H](CCN)NC1=O ?
(A) -0.52

(Q) Would you kindly repeat that for CC(=O)N[C@@H](CCCNC(=N)N)C(=O)N[C@H]1CCC(=O)NCCC[C@@H](C(N)=O)NC(=O)[C@H](Cc2c[nH]c3ccccc23)NC(=O)[C@H](CCCNC(=N)N)NC(=O)[C@@H](Cc2ccccc2F)NC(=O)[C@@H]2C[C@@H](O)CN2C1=O ?
(A) 1.72

----------
- target-of-assay: hMC4-R (Homo sapiens (Human))
- Sequence (P32245 whole entry): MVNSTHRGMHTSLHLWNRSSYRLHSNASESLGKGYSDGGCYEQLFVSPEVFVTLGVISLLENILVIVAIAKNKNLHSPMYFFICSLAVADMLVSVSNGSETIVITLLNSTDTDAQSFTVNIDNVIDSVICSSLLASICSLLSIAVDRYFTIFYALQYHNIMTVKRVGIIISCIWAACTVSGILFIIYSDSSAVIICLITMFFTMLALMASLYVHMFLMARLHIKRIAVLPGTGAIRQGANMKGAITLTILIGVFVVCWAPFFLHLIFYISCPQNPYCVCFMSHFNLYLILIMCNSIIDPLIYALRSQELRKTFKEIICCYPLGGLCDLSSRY
- experiment-description: High and low density hMC4-R functional assay (cAMP, HEK293-T-REx-MC4-R cells)
- Format: cell-based
- protocol-conditions: 10 ng/mL Doxycycline (high density hMC4-R system); NDP-α-MSH = 100%; read-out: Intrinsic Activity (%)
Below, each entry is listed alongside its reported Emax.
Could you give me the number in %? Just the number is fine.

Examples with their reported Emax follow.
CC(=O)N[C@@H](CCCNC(=N)N)C(=O)N[C@H]1CCC(=O)NCCC[C@@H](C(N)=O)NC(=O)[C@H](Cc2c[nH]c3ccccc23)NC(=O)[C@H](CCCNC(=N)N)NC(=O)[C@@H](Cc2ccc(C#N)cc2)NC(=O)[C@H](CCC(N)=O)NC1=O: 97
CC(=O)N[C@@H](CCCNC(=N)N)C(=O)N[C@H]1CCC(=O)NCCC[C@@H](C(N)=O)NC(=O)[C@H](Cc2c[nH]c3ccccc23)NC(=O)[C@H](CCCNC(=N)N)NC(=O)[C@@H](Cc2cccc(F)c2)NC(=O)[C@H](CCN)NC1=O: 94
CC(=O)N[C@@H](CCCNC(=N)N)C(=O)N[C@H]1CC(=O)NCCCC[C@@H](C(N)=O)NC(=O)[C@H](Cc2c[nH]c3ccccc23)NC(=O)[C@H](CCCNC(=N)N)NC(=O)[C@@H](Cc2ccc(C#N)cc2)NC(=O)[C@H](CCC(N)=O)NC1=O: 96

Field: next compound
(Q) Would you mind telling me what Emax value was observed for CC(=O)N[C@@H](CCCNC(=N)N)C(=O)N[C@H]1CCC(=O)NCCC[C@@H](C(N)=O)NC(=O)[C@H](Cc2c[nH]c3ccccc23)NC(=O)[C@H](CCCNC(=N)N)NC(=O)[C@@H](Cc2ccc(F)cc2)NC(=O)[C@H](CCN)NC1=O ?
(A) 90

----------
Below, each entry is listed alongside its reported Ki.
- target-of-assay: UniProt:P32245
- experiment-description: Competitive inhibition binding assay using [I125]-NDP-α-MSH, hMC4-R
- protocol-conditions: membranes of HEK-293 cells expressing recombinant hMC4-R, read-out: MC4-R Ki
I'd appreciate it if you included the unit after the number.

Examples with their reported Ki follow.
CC(=O)N[C@@H](CCCNC(=N)N)C(=O)N[C@H]1CCC(=O)NCCC[C@@H](C(N)=O)NC(=O)[C@H](Cc2c[nH]c3ccccc23)NC(=O)[C@H](CCCNC(=N)N)NC(=O)[C@@H](Cc2cccc(C#N)c2)NC(=O)[C@H](CCN)NC1=O [Example 6]: 33 nM
CC(=O)N[C@@H](CCCNC(=N)N)C(=O)N[C@H]1CCC(=O)NCCC[C@@H](C(N)=O)NC(=O)[C@H](Cc2c[nH]c3ccccc23)NC(=O)[C@H](CCCNC(=N)N)NC(=O)[C@@H](Cc2ccccc2Cl)NC(=O)[C@H](CN)NC1=O [Example 62]: 9 nM
CC(=O)N[C@@H](CCCNC(=N)N)C(=O)N[C@H]1CCCNC(=O)CC[C@@H](C(N)=O)NC(=O)[C@H](Cc2c[nH]c3ccccc23)NC(=O)[C@H](CCCNC(=N)N)NC(=O)[C@@H](Cc2ccccc2Cl)NC(=O)[C@H](CCC(N)=O)NC1=O [Example 112]: 4 nM

(Q) Would you mind telling me what Ki value was observed for CC(=O)N[C@@H](CCCNC(=N)N)C(=O)N[C@H]1CCCNC(=O)CC[C@@H](C(N)=O)NC(=O)[C@H](Cc2c[nH]c3ccccc23)NC(=O)[C@H](CCCNC(=N)N)NC(=O)[C@@H](Cc2cccc(C)c2)NC(=O)[C@H](CC(N)=O)NC1=O [Example 72] ?
(A) 4 nM
